- ASSAY_TARGET: Fuc(a1-3)[Gal(b1-4)]GlcNAc(b1-6)[Gal(b1-3)GlcNAc(b1-3)]Gal(b1-4)Glc
- MEASUREMENT_PROTOCOL: glycan array binding signal (z-score within array); higher = stronger binding
- CONDITIONS: glycan notation: IUPAC condensed, linker removed
Only a selection was taken, and the strongest signals are over-represented in it overall.
MEASUREMENT_KIND: glycan array binding signal (z-score)
Keep it simple and answer with nothing but the number.

glycan array binding signal (z-score) reported for this binder B936 (Bifidobacterium sp) (protein) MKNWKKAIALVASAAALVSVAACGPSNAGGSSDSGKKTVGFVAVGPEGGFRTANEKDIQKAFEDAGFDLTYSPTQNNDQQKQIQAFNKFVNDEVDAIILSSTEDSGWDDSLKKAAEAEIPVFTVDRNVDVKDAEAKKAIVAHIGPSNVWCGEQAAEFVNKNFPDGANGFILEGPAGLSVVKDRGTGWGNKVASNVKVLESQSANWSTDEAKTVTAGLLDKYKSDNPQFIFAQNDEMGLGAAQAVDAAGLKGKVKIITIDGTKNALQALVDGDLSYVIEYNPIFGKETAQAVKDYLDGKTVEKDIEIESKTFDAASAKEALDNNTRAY : -0.786

Sample FGFR2-Fc (protein) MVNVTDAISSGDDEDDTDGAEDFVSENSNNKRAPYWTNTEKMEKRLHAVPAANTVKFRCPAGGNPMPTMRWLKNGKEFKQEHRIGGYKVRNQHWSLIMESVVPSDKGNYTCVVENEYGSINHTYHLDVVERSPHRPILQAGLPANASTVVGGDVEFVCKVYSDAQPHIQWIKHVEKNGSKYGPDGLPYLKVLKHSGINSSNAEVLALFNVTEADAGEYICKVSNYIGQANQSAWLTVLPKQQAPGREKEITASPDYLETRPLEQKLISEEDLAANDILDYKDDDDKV ; glycan array binding signal (z-score) observed: -0.327

The binder identified as CLECb-Precomplexed (Mus musculus), P43025 (protein) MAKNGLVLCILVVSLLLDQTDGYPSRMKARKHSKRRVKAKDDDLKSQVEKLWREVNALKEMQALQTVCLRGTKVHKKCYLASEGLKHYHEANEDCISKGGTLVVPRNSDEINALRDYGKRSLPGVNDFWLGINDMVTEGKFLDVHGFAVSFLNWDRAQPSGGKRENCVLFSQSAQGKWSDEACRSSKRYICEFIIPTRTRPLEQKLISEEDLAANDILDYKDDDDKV registered its glycan array binding signal (z-score) at 0.092

Continuing:
Given item MXA PilAct-eGFP (Myxococcus xanthus), Q59589 (protein) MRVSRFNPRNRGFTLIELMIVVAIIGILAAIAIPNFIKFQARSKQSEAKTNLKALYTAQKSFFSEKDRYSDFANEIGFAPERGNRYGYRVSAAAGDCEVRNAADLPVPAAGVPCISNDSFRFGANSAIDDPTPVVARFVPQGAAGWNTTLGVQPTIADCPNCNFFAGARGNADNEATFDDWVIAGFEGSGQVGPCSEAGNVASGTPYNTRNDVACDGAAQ , the value recorded as its glycan array binding signal (z-score) is -0.768

# binder rCnSL-proB (Clitocybe nebularis) (protein) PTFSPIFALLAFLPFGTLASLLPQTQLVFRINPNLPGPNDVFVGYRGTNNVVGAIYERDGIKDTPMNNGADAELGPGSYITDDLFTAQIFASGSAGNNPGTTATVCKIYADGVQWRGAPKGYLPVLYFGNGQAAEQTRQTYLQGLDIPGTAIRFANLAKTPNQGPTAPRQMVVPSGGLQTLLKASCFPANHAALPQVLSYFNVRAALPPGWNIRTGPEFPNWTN ; its glycan array binding signal (z-score) = -0.826

Lab note: measured glycan array binding signal (z-score) of SGC, Q9M345 (protein) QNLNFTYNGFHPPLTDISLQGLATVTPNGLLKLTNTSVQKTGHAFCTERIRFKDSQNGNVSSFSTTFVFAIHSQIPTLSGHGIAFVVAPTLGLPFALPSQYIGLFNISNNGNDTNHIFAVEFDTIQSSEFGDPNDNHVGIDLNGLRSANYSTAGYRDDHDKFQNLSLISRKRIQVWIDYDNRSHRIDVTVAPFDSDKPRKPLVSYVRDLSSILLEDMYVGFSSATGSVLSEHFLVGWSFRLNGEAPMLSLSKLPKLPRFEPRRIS was -0.291
